- System: NCI-H1355
- assay_remarks: relative viability (nuclei count vs DMSO), 5 days (fraction); higher = more cells survive
- setup_conditions: first compound 0.02 µM
Listing: relative viability of selected compounds
Answer using only a numeral; do not append any unit.

| compound | assayed_target | relative viability |
| --- | --- | --- |
| CCNC(=O)c1noc(-c2cc(C(C)C)c(O)cc2O)c1-c1ccc(CN2CCOCC2)cc1 [Luminespib] + O=C(c1cc(Cc2n[nH]c(=O)c3ccccc23)ccc1F)N1CCN(C(=O)C2CC2)CC1 [Olaparib] (partner 8 µM) | NCI-H1355 | 0.611 |

The value of relative viability measured for the compound CCNC(=O)c1noc(-c2cc(C(C)C)c(O)cc2O)c1-c1ccc(CN2CCOCC2)cc1 [Luminespib] + Cc1cc(Nc2cc(N3CCN(C)CC3)nc(Sc3ccc(NC(=O)C4CC4)cc3)n2)n[nH]1 [Tozasertib] (partner 0.1 µM) turned out to be 0.421

// sample CN1CCN(CCOc2cc(OC3CCOCC3)c3c(Nc4c(Cl)ccc5c4OCO5)ncnc3c2)CC1 [Saracatinib] + CCNC(=O)c1noc(-c2cc(C(C)C)c(O)cc2O)c1-c1ccc(CN2CCOCC2)cc1 [Luminespib] (partner 0.01 µM) , its relative viability was 0.732

Note to self: relative viability recorded for CCNC(=O)c1noc(-c2cc(C(C)C)c(O)cc2O)c1-c1ccc(CN2CCOCC2)cc1 [Luminespib] + CC(=O)Nc1cccc(-n2c(=O)n(C3CC3)c(=O)c3c(Nc4ccc(I)cc4F)n(C)c(=O)c(C)c32)c1 [Trametinib] (partner 0.02 µM) was 0.265

====

- Test system: NCI-H1734
- assay_remarks: relative viability (nuclei count vs DMSO), 5 days (fraction); higher = more cells survive
- setup_conditions: first compound 0.8 µM
Here the recorded relative viability is given for each entry.
Returns: the value as a bare number; no unit string appended.

// field: relative viability; key: Nc1cccc2c1CN(C1CCC(=O)NC1=O)C2=O (stereo not given) [Lenalidomide] + COc1cc2c(Oc3ccc(NC(=O)C4(C(=O)Nc5ccc(F)cc5)CC4)cc3F)ccnc2cc1OCCCN1CCOCC1 [Foretinib] (partner 0.25 µM) ; value = 0.776

molecule Nc1cccc2c1CN(C1CCC(=O)NC1=O)C2=O (stereo not given) [Lenalidomide] + CC(=O)Nc1cccc(-n2c(=O)n(C3CC3)c(=O)c3c(Nc4ccc(I)cc4F)n(C)c(=O)c(C)c32)c1 [Trametinib] (partner 0.02 µM) , relative viability observed: 0.606

====

- Test system: NCI-H1437
- assay_remarks: relative viability (nuclei count vs DMSO), 5 days (fraction); higher = more cells survive
- setup_conditions: first compound 0.003162 µM
# reported relative viability; entries follow
Respond using a number only.

Reference set, count: 3
| compound | relative viability |
| --- | --- |
| Cc1cn(-c2cc(NC(=O)c3ccc(C)c(Nc4nccc(-c5cccnc5)n4)c3)cc(C(F)(F)F)c2)cn1 [Nilotinib] + Cc1nc(NC(=O)N2CCC[C@H]2C(N)=O)sc1-c1ccnc(C(C)(C)C(F)(F)F)c1 [Alpelisib] (partner 2 µM) | 1.17 |
| Cc1cn(-c2cc(NC(=O)c3ccc(C)c(Nc4nccc(-c5cccnc5)n4)c3)cc(C(F)(F)F)c2)cn1 [Nilotinib] + CCNC(=O)c1noc(-c2cc(C(C)C)c(O)cc2O)c1-c1ccc(CN2CCOCC2)cc1 [Luminespib] (partner 0.01 µM) | 1.3 |
| Cc1cn(-c2cc(NC(=O)c3ccc(C)c(Nc4nccc(-c5cccnc5)n4)c3)cc(C(F)(F)F)c2)cn1 [Nilotinib] + C[C@@H](Oc1cc(-c2cnn(C3CCNCC3)c2)cnc1N)c1c(Cl)ccc(F)c1Cl [Crizotinib] (partner 1 µM) | 1.25 |

Lab note: measured relative viability of Cc1cn(-c2cc(NC(=O)c3ccc(C)c(Nc4nccc(-c5cccnc5)n4)c3)cc(C(F)(F)F)c2)cn1 [Nilotinib] + CS(=O)(=O)N1CCN(Cc2cc3nc(-c4cccc5[nH]ncc45)nc(N4CCOCC4)c3s2)CC1 [Pictilisib] (partner 1 µM) was 0.414

====

Below is a list of entries, each paired with its recorded relative viability value.
- Test system: NCI-H1651
- assay_remarks: relative viability (nuclei count vs DMSO), 5 days (fraction); higher = more cells survive
- setup_conditions: first compound 0.8 µM
Would you mind answering with just the numeric figure?

Reference set (3 entries):
| molecule | assayed_target | quantitative_readout |
| --- | --- | --- |
| Nc1cccc2c1CN(C1CCC(=O)NC1=O)C2=O (centres undefined) [Lenalidomide] + Cc1nc(Nc2ncc(C(=O)Nc3c(C)cccc3Cl)s2)cc(N2CCN(CCO)CC2)n1 [Dasatinib] (partner 0.075 µM) | NCI-H1651 | 0.419 |
| Nc1cccc2c1CN(C1CCC(=O)NC1=O)C2=O (centres undefined) [Lenalidomide] + CS(=O)(=O)CCNCc1ccc(-c2ccc3ncnc(Nc4ccc(OCc5cccc(F)c5)c(Cl)c4)c3c2)o1 [Lapatinib] (partner 2 µM) | NCI-H1651 | 0.867 |
| Nc1cccc2c1CN(C1CCC(=O)NC1=O)C2=O (centres undefined) [Lenalidomide] + CCNC(=O)c1noc(-c2cc(C(C)C)c(O)cc2O)c1-c1ccc(CN2CCOCC2)cc1 [Luminespib] (partner 0.01 µM) | NCI-H1651 | 0.895 |

Reported relative viability of Nc1cccc2c1CN(C1CCC(=O)NC1=O)C2=O (centres undefined) [Lenalidomide] + COc1cccc2cc(-c3nc([C@H]4CC[C@H](C(=O)O)CC4)n4ncnc(N)c34)[nH]c12 [OSI-027] (partner 0.5 µM) : 0.728

====

- System: HCC-15
- assay_remarks: relative viability (nuclei count vs DMSO), 5 days (fraction); higher = more cells survive
- setup_conditions: first compound 2.53 µM
measurement_kind: relative viability

Examples with answers:
| molecule | relative viability |
| --- | --- |
| Nc1cccc2c1CN(C1CCC(=O)NC1=O)C2=O (centres undefined) [Lenalidomide] + N=C(N)NC(=N)NCCc1ccccc1 [Phenformin] (partner 250 µM) | 0.53 |
| Nc1cccc2c1CN(C1CCC(=O)NC1=O)C2=O (centres undefined) [Lenalidomide] + CS(=O)(=O)N1CCN(Cc2cc3nc(-c4cccc5[nH]ncc45)nc(N4CCOCC4)c3s2)CC1 [Pictilisib] (partner 1 µM) | 0.768 |
| Nc1cccc2c1CN(C1CCC(=O)NC1=O)C2=O (centres undefined) [Lenalidomide] + CC(=O)c1c(C)c2cnc(Nc3ccc(N4CCNCC4)cn3)nc2n(C2CCCC2)c1=O [Palbociclib] (partner 0.5 µM) | 0.904 |
| Nc1cccc2c1CN(C1CCC(=O)NC1=O)C2=O (centres undefined) [Lenalidomide] + Cc1nc(Nc2ncc(C(=O)Nc3c(C)cccc3Cl)s2)cc(N2CCN(CCO)CC2)n1 [Dasatinib] (partner 0.075 µM) | 0.816 |

// relative viability value for Nc1cccc2c1CN(C1CCC(=O)NC1=O)C2=O (centres undefined) [Lenalidomide] + COc1cc2c(Oc3ccc(NC(=O)C4(C(=O)Nc5ccc(F)cc5)CC4)cc3F)ccnc2cc1OCCCN1CCOCC1 [Foretinib] (partner 0.25 µM) : 1.17

Record Nc1cccc2c1CN(C1CCC(=O)NC1=O)C2=O (centres undefined) [Lenalidomide] + COc1cccc2cc(-c3nc([C@H]4CC[C@H](C(=O)O)CC4)n4ncnc(N)c34)[nH]c12 [OSI-027] (partner 0.5 µM) , field relative viability: 0.826

For reference, reported relative viability for Nc1cccc2c1CN(C1CCC(=O)NC1=O)C2=O (centres undefined) [Lenalidomide] + CC(C)C[C@H](NC(=O)[C@H](Cc1ccccc1)NC(=O)c1cnccn1)B(O)O [Bortezomib] (partner 0.002 µM) stands at 1.34

GET /value?item= Nc1cccc2c1CN(C1CCC(=O)NC1=O)C2=O (centres undefined) [Lenalidomide] + O=C(CCCCCCC(=O)Nc1ccccc1)NO [Vorinostat] (partner 1 µM) &field=relative viability returns 0.917

Recorded result, Nc1cccc2c1CN(C1CCC(=O)NC1=O)C2=O (centres undefined) [Lenalidomide] + C[C@@H](Oc1cc(-c2cnn(C3CCNCC3)c2)cnc1N)c1c(Cl)ccc(F)c1Cl [Crizotinib] (partner 1 µM) , relative viability: 1.03

====

As shown below, each of these compounds has a reported relative viability value.
- Test system: PC-14
- assay_remarks: relative viability (nuclei count vs DMSO), 5 days (fraction); higher = more cells survive
- setup_conditions: first compound 0.1 µM
Respond with the number and no other words.

Illustrative cases are given below, each with its answer.
| compound | assayed_target | measurement_kind | quantitative_readout |
| --- | --- | --- | --- |
| Cc1cn(-c2cc(NC(=O)c3ccc(C)c(Nc4nccc(-c5cccnc5)n4)c3)cc(C(F)(F)F)c2)cn1 [Nilotinib] + C[C@@H](Oc1cc(-c2cnn(C3CCNCC3)c2)cnc1N)c1c(Cl)ccc(F)c1Cl [Crizotinib] (partner 1 µM) | PC-14 | relative viability | 0.945 |
| Cc1cn(-c2cc(NC(=O)c3ccc(C)c(Nc4nccc(-c5cccnc5)n4)c3)cc(C(F)(F)F)c2)cn1 [Nilotinib] + O=C(CCCCCCC(=O)Nc1ccccc1)NO [Vorinostat] (partner 1 µM) | PC-14 | relative viability | 0.156 |
| Cc1cn(-c2cc(NC(=O)c3ccc(C)c(Nc4nccc(-c5cccnc5)n4)c3)cc(C(F)(F)F)c2)cn1 [Nilotinib] + CC(=O)c1c(C)c2cnc(Nc3ccc(N4CCNCC4)cn3)nc2n(C2CCCC2)c1=O [Palbociclib] (partner 0.5 µM) | PC-14 | relative viability | 0.713 |

Data point: Cc1cn(-c2cc(NC(=O)c3ccc(C)c(Nc4nccc(-c5cccnc5)n4)c3)cc(C(F)(F)F)c2)cn1 [Nilotinib] + CC(=O)Nc1cccc(-n2c(=O)n(C3CC3)c(=O)c3c(Nc4ccc(I)cc4F)n(C)c(=O)c(C)c32)c1 [Trametinib] (partner 0.02 µM) ; relative viability = 0.526
